assayed_system: human TLR8 (Homo sapiens (Human))
Sequence (Q9NR97 27-1041): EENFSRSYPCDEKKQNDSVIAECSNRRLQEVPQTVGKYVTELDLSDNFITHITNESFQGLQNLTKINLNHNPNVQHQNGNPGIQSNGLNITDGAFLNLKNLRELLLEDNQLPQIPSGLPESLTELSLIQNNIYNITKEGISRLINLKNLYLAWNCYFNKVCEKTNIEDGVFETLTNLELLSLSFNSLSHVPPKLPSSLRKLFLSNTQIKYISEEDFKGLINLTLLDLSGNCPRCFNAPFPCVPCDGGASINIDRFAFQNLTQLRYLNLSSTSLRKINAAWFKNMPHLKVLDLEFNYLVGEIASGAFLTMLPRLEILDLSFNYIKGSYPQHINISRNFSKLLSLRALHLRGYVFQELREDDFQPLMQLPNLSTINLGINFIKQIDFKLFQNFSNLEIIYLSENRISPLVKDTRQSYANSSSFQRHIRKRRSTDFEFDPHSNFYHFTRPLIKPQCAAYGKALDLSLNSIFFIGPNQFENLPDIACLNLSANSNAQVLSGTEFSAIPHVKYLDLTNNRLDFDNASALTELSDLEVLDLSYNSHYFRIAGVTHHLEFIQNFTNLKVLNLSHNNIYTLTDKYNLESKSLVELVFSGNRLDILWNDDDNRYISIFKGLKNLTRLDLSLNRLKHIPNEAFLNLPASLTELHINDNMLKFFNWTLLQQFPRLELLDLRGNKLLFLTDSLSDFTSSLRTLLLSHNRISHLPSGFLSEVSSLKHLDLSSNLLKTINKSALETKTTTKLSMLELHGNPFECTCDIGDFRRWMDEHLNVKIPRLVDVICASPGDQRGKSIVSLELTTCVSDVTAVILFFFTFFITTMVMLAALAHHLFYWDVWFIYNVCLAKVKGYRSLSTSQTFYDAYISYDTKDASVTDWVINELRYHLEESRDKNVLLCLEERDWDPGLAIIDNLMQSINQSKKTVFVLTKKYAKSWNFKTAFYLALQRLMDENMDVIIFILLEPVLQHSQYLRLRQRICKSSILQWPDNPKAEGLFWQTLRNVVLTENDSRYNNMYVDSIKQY
run_description: TLR8 inhibition reporter assay (HEK-Blue cells, SEAP reporter, R848 stimulation);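 note: compounds tested from 0.05 nM to 50 µM, 22 h at 37 °C, SEAP measured with HEK-Blue Detection, inhibition relative to agonist plus DMSO versus a known inhibitor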
measurement_setup: read-out: TLR8 IC50, HEK-Blue cells overexpressing human TLR8, R848 15.9 μM
pIC50: −log10 of the molar value.
quantity_name: pIC50

>>> reported_value("Cc1cc(-c2[nH]c3ccc(C4CCN(C(=O)c5c(C)noc5C)CC4)cc3c2C(C)C)cc(C)n1 [Example 119]")
7.02
>>> reported_value("Cc1cc(-c2[nH]c3ccc(C4CCN(C(=O)CN5CC6CCC(C5)O6)CC4)cc3c2C(C)C)cc(C)n1 [Example 389]")
7.50
>>> reported_value("Cc1cc(-c2[nH]c3ccc(C4CCN(C(=O)[C@H]5CC[C@H](N)CC5)CC4)cc3c2C(C)C)ccn1 [Example 764]")
6.58
>>> reported_value("CCc1c(-c2cc(C)nc(C)c2)[nH]c2ccc(C3CCN(CC(=O)NC)CC3)cc12 [Example 527]")
7.20
>>> reported_value("Cc1cc(-c2[nH]c3ccc(C4CC(C)(C)N(C)C(C)(C)C4)cc3c2C(C)C)cc(C)n1 [Example 496]")
5.02
>>> reported_value("Cc1cc(-c2[nH]c3ccc(C4CCN(CC(=O)NCC#N)CC4)cc3c2C(C)C)cc(C)n1 [Example 239]")
8.05
>>> reported_value("Cc1cc(-c2[nH]c3ccc(C4CCN(C(=O)CNCC5CCCO5)CC4)cc3c2C(C)C)cc(C)n1 (stereo not drawn) [Example 373]")
7.76
>>> reported_value("Cc1cc(-c2[nH]c3ccc(C4CCN(C(=O)CN(C(C)C)C(C)C)CC4)cc3c2C(C)C)cc(C)n1 [Example 153]")
7.59
>>> reported_value("CCc1c(-c2ccnc(N)c2O)[nH]c2ccc(C3CCNCC3)cc12 [Example 71]")
5.25
>>> reported_value("Cc1cc(-c2[nH]c3ccc(C4CCN(C(=O)CN5CC(C(F)(F)F)C[C@@H]5CO)CC4)cc3c2C(C)C)cc(C)n1 (stereo partly drawn) [Example 404]")
6.36
>>> reported_value("Cc1cc(-c2[nH]c3ccc(C4CCN(C(=O)C5(C)CCN(C)CC5)CC4)cc3c2C(C)C)cc(C)n1 [Example 176]")
7.66
>>> reported_value("Cc1cc(-c2[nH]c3ccc(C4CCN(C5CCCOC5)CC4)cc3c2C(C)C)c(C)cn1 (stereo not drawn) [Example 726]")
8.96
>>> reported_value("Cc1cc(-c2[nH]c3ccc(C4CCN(C(=O)CCN(C)C5COC5)CC4)cc3c2C(C)C)cc(C)n1 [Example 589]")
7.56
>>> reported_value("CC(C)c1c(-c2ccncc2NC(=O)C(C)(C)C)[nH]c2ccc(C3CCNCC3)cc12 [Example 37]")
6.20
>>> reported_value("Cc1cc(-c2[nH]c3ccc(C4CCN(CC(=O)N(C)CC(O)c5ccccc5)CC4)cc3c2C(C)C)cc(C)n1 (stereo not drawn) [Example 296]")
7.34
>>> reported_value("Cc1cc(-c2[nH]c3ccc(C4CCN(CC(=O)NC(C)(C)C)CC4)cc3c2C(C)C)cc(C)n1 [Example 217]")
7.59
>>> reported_value("Cc1cc(-c2[nH]c3ccc(C4CCN(C(=O)CCCN(C)C)CC4)cc3c2C(C)C)cc(C)n1 [Example 111]")
6.59
>>> reported_value("Cc1cc(-c2[nH]c3ccc(C4CCN(C(=O)c5cscn5)CC4)cc3c2C(C)C)ccn1 [Example 609]")
6.67
>>> reported_value("Cc1cc(-c2[nH]c3ccc(C4CCN(C(=O)CN(C)C)CC4)cc3c2C(C)C)cc(F)n1 [Example 501]")
7.52
>>> reported_value("Cc1cc(-c2[nH]c3ccc(C4CCN(C(=O)C(C)(C)N)CC4)cc3c2C(C)C)cc(C)n1 [Example 194]")
8.03
>>> reported_value("Cc1cc(-c2[nH]c3ccc(C4CCN(C(=O)c5c(C)n[nH]c5C)CC4)cc3c2C(C)C)cc(C)n1 [Example 121]")
7.01
>>> reported_value("Cc1cc(-c2[nH]c3ccc(C4CCN(CC5(CO)COC5)CC4)cc3c2C(C)C)cc(C)n1 [Example 319]")
8.40
>>> reported_value("CC(C)c1c(-c2ccnc(C(=O)NCC(F)(F)F)c2)[nH]c2ccc(C3CCNCC3)cc12 [Example 476]")
5.98
>>> reported_value("Cc1cc(-c2[nH]c3ccc(C4CCN(C(=O)C(C)(C)O)CC4)cc3c2C(C)C)cc(C)n1 [Example 173]")
7.05
>>> reported_value("Cc1cc(-c2[nH]c3ccc(C4CCN(C)CC4)cc3c2C(C)C)c(C)cn1 [Example 636]")
9.00
>>> reported_value("Cc1cc(-c2[nH]c3cc(F)c(C4CCNCC4)cc3c2C(C)C)c(C)cn1 [Example 80]")
8.89
>>> reported_value("Cc1cc(-c2[nH]c3ccc(C4CCN(CC(C)C)CC4)cc3c2C(C)C)c(C)cn1 [Example 666]")
8.59
>>> reported_value("Cc1cc(-c2[nH]c3ccc(C4CCN(C(=O)CNC56CC7CC(CC(C7)C5)C6)CC4)cc3c2C(C)C)cc(C)n1 [Example 342]")
7.17
>>> reported_value("Cc1cc(-c2[nH]c3ccc(C4CCN(C5CCOCC5)CC4)cc3c2C(C)C)cc(C)n1 [Example 450]")
8.10
>>> reported_value("Cc1cc(-c2[nH]c3ccc(C4CCN(CC(=O)N5CCC(C)CC5)CC4)cc3c2C(C)C)cc(C)n1 [Example 269]")
7.70
